Hello, the source for this data is paper PMC1636342, in case you need it.

- study.target: Bs-CspB F27A (Bacillus subtilis, UniProt P32081 1-67, F27A)
- assay.remarks: tryptophan fluorescence quenching
property.measured: pKd
# pKd is unitless: minus log10 of the molar concentration; print number only

Would you kindly share the measured pKd for TTTTTTT (ssDNA) [dT7] ?
6.54
